biological target: PDE4; assay: PDE4 isolated enzyme two-step radioenzymatic PDE assay; details: 1 µM cAMP substrate, 30°C, 30 min; read-out: inhibition concentration value (IC50)
READOUT_KIND: IC50 (µM)
Reply with just the number (in µM).

Which IC50 is reported with PDE4 for this entry: COc1cc2nccc(Oc3ccc(NC(=O)Nc4cc(C)on4)c(Cl)c3)c2cc1OC [tivozanib] ?
4.8
